Origin of values: patent US20250353873A1

system: human APOE RNA; assay: Potency (dose response, ED50) in APOE C57BL/6NTac-Apoeem7250 knock-in mice, 4 weeks (Example 14); type: in vivo; details: cortex, single ICV bolus, GraphPad Prism 10
Strand notation (5' to 3'): a small letter for the sugar, then the base; units joined by * are phosphorothioate-linked, units joined directly phosphodiester-linked; [ ] holds rarer units or linkages, { } end groups; capitals alone tell only the bases. [ms] = mesyl phosphoramidate linkage; e = 2'-O-(2-methoxyethyl) (MOE); k = constrained ethyl (cEt); [5mC] = 5-methylcytosine; d = 2'-deoxy (DNA)
Mark Criterion met only when ED 50 (μg) Cortex stays strictly below 500 µg. Values equal to the cut-off are Criterion not met.

>>> discrete_label("1778154: modified oligonucleotide complementary to human APOE RNA (e[5mC]*eT*eTeGeGeT*dG[ms]dA[ms]dA*dT*d[5mC]*dT*dT*dT*dA*dT*kTkAeA*eA; antisense) [compound 1778154]")
"Criterion met"

Query: Please determine if 1785598: modified oligonucleotide complementary to human APOE RNA (k[5mC]*kT*kT*dG[ms]dG[ms]dT[ms]dG[ms]dA[ms]dA[ms]dT*d[5mC]*dT*dT*dT*dA*dT[ms]kT*kA*dA[ms]kA; antisense) [compound 1785598] is below 500 µg in terms of ED 50 (μg) Cortex.
Result: Criterion met

Query: Param item: Aes^mCeoTeoTesGesGksTdsGdzAdzAdzTds^mCdsTdsTdsTdsAdzTksTksAesAe (eA*e[5mC]eTeT*eG*kG*dT*dG[ms]dA[ms]dA[ms]dT*d[5mC]*dT*dT*dT*dA[ms]kT*kT*eA*eA) [Compound No. 1757576]
Result: Criterion met

Query: What do you get for 1757575 (eA*e[5mC]eTeT*kG*kG*dT*dG[ms]dA[ms]dA[ms]dT*d[5mC]*dT*dT*dT*dA[ms]kT*eT*eA*eA; antisense) [Compound 1757575] ?
Result: Criterion met

Query: Check 1693105: 6-10-4 MOE gapmer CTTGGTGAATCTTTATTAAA, linkages sosssszzzssssszssss (e[5mC]*eTeT*eG*eG*eT*dG[ms]dA[ms]dA[ms]dT*d[5mC]*dT*dT*dT*dA[ms]dT*eT*eA*eA*eA) [compound 1693105] too.
Result: Criterion not met
